- ASSAY TARGET: human V2R (Homo sapiens, UniProt P30518)
- Sequence (P30518 whole entry): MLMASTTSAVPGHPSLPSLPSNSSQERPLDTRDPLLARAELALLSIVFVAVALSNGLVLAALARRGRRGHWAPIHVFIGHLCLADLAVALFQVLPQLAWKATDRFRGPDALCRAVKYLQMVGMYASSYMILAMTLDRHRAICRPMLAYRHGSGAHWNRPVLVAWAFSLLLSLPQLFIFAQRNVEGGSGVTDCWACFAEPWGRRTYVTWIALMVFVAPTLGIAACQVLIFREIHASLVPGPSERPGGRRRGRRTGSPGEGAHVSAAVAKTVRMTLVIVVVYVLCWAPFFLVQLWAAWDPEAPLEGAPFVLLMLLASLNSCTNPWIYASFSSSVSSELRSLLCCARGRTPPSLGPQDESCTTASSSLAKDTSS
- TEST CONDITIONS: read-out: kon (association constant between the compound to be tested and cells)
QUANTITY: kon (M⁻¹ s⁻¹)

Worked examples follow.
# COMPOUND, kon [M⁻¹ s⁻¹]
measured = [
    ("Cc1ccccc1C(=O)Nc1ccc(C(=O)N2CCCC(NCCOc3ccccc3)c3cc(Cl)ccc32)c(C)c1 (centres unmarked)", 18300),
    ("Cc1ccccc1C(=O)Nc1ccc(C(=O)N2CCCC(NCCCN3CCN(C)CC3)c3cc(Cl)ccc32)c(C)c1 (centres unmarked)", 350000),
    ("Cc1ccccc1C(=O)Nc1ccc(C(=O)N2CCCC(NCCCCN3CCOCC3)c3cc(Cl)ccc32)c(C)c1 (centres unmarked)", 160000),
    ("Cc1ccccc1C(=O)Nc1ccc(C(=O)N2CCCC(NCCCc3ccncc3)c3cc(Cl)ccc32)c(C)c1 (centres unmarked)", 165000),
]

[A] Cc1ccccc1C(=O)Nc1ccc(C(=O)N2CCCC(NCCC(=O)N3CCOCC3)c3cc(Cl)ccc32)c(C)c1 (centres unmarked)
[B] Cc1ccccc1C(=O)Nc1ccc(C(=O)N2CCCC(NCCCCCN3CCOCC3)c3cc(Cl)ccc32)c(C)c1 (centres unmarked)
Qu. I'd appreciate it if you could identify which of A and B has the greater kon. # answer = label of selected item
Ans. A
(A: 683000 M⁻¹ s⁻¹, B: 105000 M⁻¹ s⁻¹)

[I] Cc1ccccc1C(=O)Nc1ccc(C(=O)N2CCCC(NCCN3CCOCC3)c3cc(Cl)ccc32)c(C)c1 (centres unmarked)
[II] Cc1ccccc1C(=O)Nc1ccc(C(=O)N2CCCC(NCCCCCOc3ccccc3)c3cc(Cl)ccc32)c(C)c1 (centres unmarked)
Qu. I'd appreciate it if you could identify which of I and II has the greater kon. # answer = label of selected item
Ans. I
